Cited source for all entries: PubChem BioAssay AID1845211

Listing of entries alongside the reported viability, T/C.
# Tested on: NCI-H322M multicellular tumor spheroids, viability (% test/control)
# protocol summary: Anticancer human tumor NCI-H322M cell line growth inhibition
# stated conditions: second compound 94.9 pM; first compound 10 µM; active compounds read low

Sample records with viability, T/C:
COc1cc(C)[nH]c(=O)c1CN1CCc2c(Cl)cc(C(OC)C3COC3)c(Cl)c2C1=O (centres undefined) + COc1cc2c(cc1O)CCNC21CSC2c3c(OC(C)=O)c(C)c4c(c3C(COC1=O)N1C(O)C3Cc5cc(C)c(OC)c(O)c5C(C21)N3C)OCO4; 84.1%
CC(C)n1c(=O)n(C)c2cnc3cc(F)c(-c4ccc(OCCCN5CCCCC5)nc4)cc3c21 + COc1cc2c(cc1O)CCNC21CSC2c3c(OC(C)=O)c(C)c4c(c3C(COC1=O)N1C(O)C3Cc5cc(C)c(OC)c(O)c5C(C21)N3C)OCO4; 62.5%
COc1ccc([C@@H](O)c2cc(-c3ncnc4cc(N5CCOCC5)ccc34)c(F)cc2Cl)nn1 + COc1cc2c(cc1O)CCNC21CSC2c3c(OC(C)=O)c(C)c4c(c3C(COC1=O)N1C(O)C3Cc5cc(C)c(OC)c(O)c5C(C21)N3C)OCO4; 32%

// moving on: another record for viability, T/C
Query :: Output viability, T/C of Cc1cc(C)c(CNC(=O)c2cc(-c3ccc(CN4CCOCC4)cc3)cc3c2cnn3C2CCCC2)c(=O)[nH]1 + COc1cc2c(cc1O)CCNC21CSC2c3c(OC(C)=O)c(C)c4c(c3C(COC1=O)N1C(O)C3Cc5cc(C)c(OC)c(O)c5C(C21)N3C)OCO4
Result :: 130%

* * *

# System: NCI-H322M multicellular tumor spheroids, viability (% test/control)
# protocol summary: Anticancer human tumor NCI-H322M cell line growth inhibition;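 note: spheroids exposed to compound for seven days before readout; 100% = DMSO vehicle control wells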
# stated conditions: second compound 94.9 pM; first compound 0.1 µM; active compounds read low
outcome measure: viability, T/C

Query :: Indicate the recorded viability, T/C value for this molecule: Cc1cc(C)c(CNC(=O)c2cc(-c3ccc(CN4CCOCC4)cc3)cc3c2cnn3C2CCCC2)c(=O)[nH]1 + COc1cc2c(cc1O)CCNC21CSC2c3c(OC(C)=O)c(C)c4c(c3C(COC1=O)N1C(O)C3Cc5cc(C)c(OC)c(O)c5C(C21)N3C)OCO4
Result :: 90.9%

Query :: Please give the documented viability, T/C of COc1ccc([C@@H](O)c2cc(-c3ncnc4cc(N5CCOCC5)ccc34)c(F)cc2Cl)nn1 + COc1cc2c(cc1O)CCNC21CSC2c3c(OC(C)=O)c(C)c4c(c3C(COC1=O)N1C(O)C3Cc5cc(C)c(OC)c(O)c5C(C21)N3C)OCO4
Result :: 89.1%

Query :: Given the molecule [2H]c1nc(C)nc([2H])c1-c1cc(NC[C@@H](C)c2cccc3c(C(=O)NC)ccnc23)ncn1 + COc1cc2c(cc1O)CCNC21CSC2c3c(OC(C)=O)c(C)c4c(c3C(COC1=O)N1C(O)C3Cc5cc(C)c(OC)c(O)c5C(C21)N3C)OCO4 , write its reported viability, T/C.
Result :: 76.7%

Query :: Read the entry CC1COCCN1c1cc(-c2ccnn2C)c2ccnc(-c3ccn[nH]3)c2n1 (stereo unspecified) + COc1cc2c(cc1O)CCNC21CSC2c3c(OC(C)=O)c(C)c4c(c3C(COC1=O)N1C(O)C3Cc5cc(C)c(OC)c(O)c5C(C21)N3C)OCO4 and write its reported viability, T/C.
Result :: 29.3%

Query :: Entry CC(C)n1c(=O)n(C)c2cnc3cc(F)c(-c4ccc(OCCCN5CCCCC5)nc4)cc3c21 + COc1cc2c(cc1O)CCNC21CSC2c3c(OC(C)=O)c(C)c4c(c3C(COC1=O)N1C(O)C3Cc5cc(C)c(OC)c(O)c5C(C21)N3C)OCO4 needs its viability, T/C filled in; supply it.
Result :: 64.4%

Query :: Input COc1cc(C)[nH]c(=O)c1CN1CCc2c(Cl)cc(C(OC)C3COC3)c(Cl)c2C1=O (stereo unspecified) + COc1cc2c(cc1O)CCNC21CSC2c3c(OC(C)=O)c(C)c4c(c3C(COC1=O)N1C(O)C3Cc5cc(C)c(OC)c(O)c5C(C21)N3C)OCO4 , output reported viability, T/C.
Result :: 77.5%

* * *

Listing: viability, T/C of selected compounds
# Tested on: NCI-H322M multicellular tumor spheroids, viability (% test/control)
# protocol summary: Anticancer human tumor NCI-H322M cell line growth inhibition;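 note: spheroids exposed to compound for seven days before readout; 100% = DMSO vehicle control wells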
# stated conditions: second compound 0.3 µM; first compound 0.949 µM; active compounds read low
Number in %, nothing else.

Cc1sc2c(c1C)C(c1ccc(Cl)cc1)=NC(CC(=O)Nc1ccc(O)cc1)c1nnc(C)n1-2 (centres undefined) + CC[C@@]1(O)C(=O)OCc2c1cc1n(c2=O)Cc2cc3c(CN(C)C)c(O)ccc3nc2-1; 71
Cn1ncnc1[C@H]1c2n[nH]c(=O)c3cc(F)cc(c23)N[C@@H]1c1ccc(F)cc1 + CC[C@@]1(O)C(=O)OCc2c1cc1n(c2=O)Cc2cc3c(CN(C)C)c(O)ccc3nc2-1; 47
CNCc1ccc(-c2cc(-c3nc(-c4ccc(S(=O)(=O)C(C)C)cc4)cnc3N)on2)cc1 + CC[C@@]1(O)C(=O)OCc2c1cc1n(c2=O)Cc2cc3c(CN(C)C)c(O)ccc3nc2-1; 51.7

Consider the record given below.
Query :: For NCI-H322M multicellular tumor spheroids, viability (% test/control), give the measured viability, T/C of the entry O=C(c1cc(Cc2n[nH]c(=O)c3ccccc23)ccc1F)N1CCN(C(=O)C2CC2)CC1 + CC[C@@]1(O)C(=O)OCc2c1cc1n(c2=O)Cc2cc3c(CN(C)C)c(O)ccc3nc2-1
Result :: 45.3

* * *

# Tested on: NCI-H322M multicellular tumor spheroids, viability (% test/control)
# protocol summary: Anticancer human tumor NCI-H322M cell line growth inhibition;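 note: spheroids exposed to compound for seven days before readout; 100% = DMSO vehicle control wells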
# stated conditions: second compound 30 pM; first compound 1 µM; active compounds read low
As shown below, each of these compounds has a reported viability, T/C value.

Past entries and their recorded results:
CC1COCCN1c1cc(-c2ccnn2C)c2ccnc(-c3ccn[nH]3)c2n1 (stereo unspecified) + COc1cc2c(cc1O)CCNC21CSC2c3c(OC(C)=O)c(C)c4c(c3C(COC1=O)N1C(O)C3Cc5cc(C)c(OC)c(O)c5C(C21)N3C)OCO4; 29.2%
Cc1cc(C)c(CNC(=O)c2cc(-c3ccc(CN4CCOCC4)cc3)cc3c2cnn3C2CCCC2)c(=O)[nH]1 + COc1cc2c(cc1O)CCNC21CSC2c3c(OC(C)=O)c(C)c4c(c3C(COC1=O)N1C(O)C3Cc5cc(C)c(OC)c(O)c5C(C21)N3C)OCO4; 97.9%
[2H]c1nc(C)nc([2H])c1-c1cc(NC[C@@H](C)c2cccc3c(C(=O)NC)ccnc23)ncn1 + COc1cc2c(cc1O)CCNC21CSC2c3c(OC(C)=O)c(C)c4c(c3C(COC1=O)N1C(O)C3Cc5cc(C)c(OC)c(O)c5C(C21)N3C)OCO4; 84.7%
COc1cc(C)[nH]c(=O)c1CN1CCc2c(Cl)cc(C(OC)C3COC3)c(Cl)c2C1=O (stereo unspecified) + COc1cc2c(cc1O)CCNC21CSC2c3c(OC(C)=O)c(C)c4c(c3C(COC1=O)N1C(O)C3Cc5cc(C)c(OC)c(O)c5C(C21)N3C)OCO4; 84%

Query :: Supply recorded viability, T/C for CC(C)n1c(=O)n(C)c2cnc3cc(F)c(-c4ccc(OCCCN5CCCCC5)nc4)cc3c21 + COc1cc2c(cc1O)CCNC21CSC2c3c(OC(C)=O)c(C)c4c(c3C(COC1=O)N1C(O)C3Cc5cc(C)c(OC)c(O)c5C(C21)N3C)OCO4 here.
Result :: 62.8%

Query :: Entry COc1ccc([C@@H](O)c2cc(-c3ncnc4cc(N5CCOCC5)ccc34)c(F)cc2Cl)nn1 + COc1cc2c(cc1O)CCNC21CSC2c3c(OC(C)=O)c(C)c4c(c3C(COC1=O)N1C(O)C3Cc5cc(C)c(OC)c(O)c5C(C21)N3C)OCO4 needs its viability, T/C filled in; supply it.
Result :: 62.1%

* * *

# Tested on: NCI-H322M multicellular tumor spheroids, viability (% test/control)
# protocol summary: Anticancer human tumor NCI-H322M cell line growth inhibition;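 note: spheroids exposed to compound for seven days before readout; 100% = DMSO vehicle control wells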
# stated conditions: second compound 0.0949 µM; first compound 0.949 µM; active compounds read low
outcome measure: viability, T/C (%)
Numeric only. Scale: %

Some solved cases for reference:
O=C(c1cc(Cc2n[nH]c(=O)c3ccccc23)ccc1F)N1CCN(C(=O)C2CC2)CC1 + CC[C@@]1(O)C(=O)OCc2c1cc1n(c2=O)Cc2cc3c(CN(C)C)c(O)ccc3nc2-1; 60.5
CNCc1ccc(-c2cc(-c3nc(-c4ccc(S(=O)(=O)C(C)C)cc4)cnc3N)on2)cc1 + CC[C@@]1(O)C(=O)OCc2c1cc1n(c2=O)Cc2cc3c(CN(C)C)c(O)ccc3nc2-1; 59.7
Cn1ncnc1[C@H]1c2n[nH]c(=O)c3cc(F)cc(c23)N[C@@H]1c1ccc(F)cc1 + CC[C@@]1(O)C(=O)OCc2c1cc1n(c2=O)Cc2cc3c(CN(C)C)c(O)ccc3nc2-1; 51.2

Consider now this further molecule.
Query :: Answer with the recorded viability, T/C of Cc1sc2c(c1C)C(c1ccc(Cl)cc1)=NC(CC(=O)Nc1ccc(O)cc1)c1nnc(C)n1-2 (centres undefined) + CC[C@@]1(O)C(=O)OCc2c1cc1n(c2=O)Cc2cc3c(CN(C)C)c(O)ccc3nc2-1 only.
Result :: 79.8
